target: dopamine D2 receptor (Rattus norvegicus, UniProt P61169)
Sequence (P61169 whole entry): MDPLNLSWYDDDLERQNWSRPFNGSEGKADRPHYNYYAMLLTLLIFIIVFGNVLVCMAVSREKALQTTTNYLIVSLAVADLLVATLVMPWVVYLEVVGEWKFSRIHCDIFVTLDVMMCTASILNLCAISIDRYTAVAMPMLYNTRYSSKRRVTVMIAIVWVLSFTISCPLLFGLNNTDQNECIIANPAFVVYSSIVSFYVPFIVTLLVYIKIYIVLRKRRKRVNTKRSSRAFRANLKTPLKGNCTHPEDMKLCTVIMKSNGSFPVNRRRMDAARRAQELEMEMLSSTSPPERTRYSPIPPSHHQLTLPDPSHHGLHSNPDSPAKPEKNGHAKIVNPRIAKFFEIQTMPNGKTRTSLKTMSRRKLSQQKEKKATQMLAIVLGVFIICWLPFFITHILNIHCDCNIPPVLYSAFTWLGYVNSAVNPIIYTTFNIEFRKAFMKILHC
assay_procedure: in vitro autoradiography on rat brain sections
Type: binding
conditions: transaxial and coronal/transversal sections; excess competitor
assay_endpoint: effect on binding of [3H]MCL-536 on brain sections (summary statements)

Name the recorded effect on binding of [3H]MCL-536 on brain sections (summary statements) of the molecule listed here: CCN1CCCC1CNC(=O)c1cc(S(N)(=O)=O)ccc1OC (stereo not shown) [sulpiride]
completely abolished

Answer with reported effect on binding of [3H]MCL-536 on brain sections (summary statements) of CCN1CCC[C@H]1CNC(=O)c1c(O)c(Cl)cc(Cl)c1OC [raclopride]
completely abolished
